Where these numbers come from: patent US7129250B2

Test system: HIAP1 mRNA in LAN5 cells
Test: LAN5 HAIP1 Down Regulators (RNA levels)
Type: cell-based
Conditions: HIAP1 RNA level vs control = 1.0; 24 hours drug
Quick rule for you: Fold Induction at 0.2 or higher means t, lower means f.

Q) Textbook exercise: given the entry CN(C)C(=O)n1cc(C2=CC(=O)NC2=O)c2cc(Br)ccc21 [Compound 58] , state whether its Fold Induction is greater than or equal to 0.2.
A) t

Q) Also check Cc1ccc(S(=O)(=O)n2cc(C3=CC(=O)NC3=O)c3cc(Br)ccc32)cc1 [Compound 60]
A) f

Q) Record: Cc1ccc(S(=O)(=O)n2cc(C3=CC(=O)NC3=O)c3cc(OCc4ccccc4)ccc32)cc1 [Compound 70]
A) t

Q) Also O=C1C=C(c2c[nH]c3ccc(Br)cc23)C(=O)N1 [Compound 56] , if possible.
A) t

Q) Try this molecule next: O=C1C=C(c2cn(S(=O)(=O)c3ccc4ccccc4c3)c3ccc(Br)cc23)C(=O)N1 [Compound 62]
A) f

Q) Note, next up: CN(C)c1cccc2c(S(=O)(=O)n3cc(C4=CC(=O)NC4=O)c4cc(Br)ccc43)cccc12 [Compound 63]
A) t

Q) Also need O=C1C=C(c2cn(C(=O)c3ccccc3)c3ccc(Br)cc23)C(=O)N1 [Compound 59] , thanks.
A) t

Q) And for O=C1C=C(c2cn(S(=O)(=O)c3cccc4ccccc34)c3ccc(Br)cc23)C(=O)N1 [Compound 61] ?
A) f

Q) Okay, and COc1ccc2c(c1)c(C1=CC(=O)NC1=O)cn2S(=O)(=O)c1ccc(C)cc1 [Compound 87] ?
A) t

Q) What do we get for CC(=O)n1cc(C2=CC(=O)NC2=O)c2cc(Br)ccc21 [Compound 57] ?
A) t

Q) And what about the molecule COC(=O)[C@@]1(O)C[C@H]2O[C@]1(C)n1c3ccccc3c3c4c(c5c6ccccc6n2c5c31)C(=O)NC4 [Compound K252a, K252a, reference compound] ?
A) t
